test: enhancers of RGS4 function in calcium signaling – cell-based, HEK293 M3R inducible RGS4, calcium flux, primary screen (AID 463111); conditions: HEK293 M3R/inducible RGS4, carbachol calcium flux Fluo4, at 10 µM
In all, about 310,000 compounds went through this assay and about 2,800 (0.9%) were called active.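 How the source made its calls: active means B-score of the integrated calcium signal more than 4 SD below the library mean, with starting fluorescence not abnormally high; inactive means the rest.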 Only a selection was taken, and actives are over-represented in it overall.
Hello, when you answer, please use one of the following outcomes: active, inactive

Some entries whose results are on file:
{"COMPOUND": "CC(C)(C)NCCCOc1ccc(Cl)cc1C(C)(C)C", "CATEGORY": "inactive"}
{"COMPOUND": "CCOC(=O)C1(Cc2ccccc2C)CCCN(C(=O)c2ccc(COC)o2)C1 (configuration not stated)", "CATEGORY": "inactive"}
{"COMPOUND": "CC(=O)Nc1ccc(/C(C)=N/NC(=O)CN(c2ccccc2Br)S(C)(=O)=O)cc1", "CATEGORY": "inactive"}

Request: Tell me the recorded outcome of this test for CC(C)Oc1ccc(CN2CCC(n3nccc3NC(=O)c3cccnc3)CC2)cc1 .
Result: inactive

Request: Moving on to the next compound: CCC(CC)COC(=O)C1=C(C)NC(=O)NC1c1ccc([N+](=O)[O-])cc1 (configuration not stated)
Result: inactive

Request: Moving on to the next compound: CCc1ccc(C(=O)NC(=S)Nc2ccccc2N2CCOCC2)cc1
Result: inactive

Request: Moving on to the next compound: O=C(Oc1ccc([N+](=O)[O-])cc1)c1ccc(Cl)c(S(=O)(=O)N2CCCCC2)c1
Result: inactive

Request: Moving on to the next compound: C=CCn1c(SCC(=O)Nc2nc3ccccc3s2)nnc1-c1ccccc1O
Result: inactive

Request: Moving on to the next compound: CC1(c2ccc3ccccc3c2)NC(=O)N(CC(N)=O)C1=O (configuration not stated)
Result: inactive

Request: Moving on to the next compound: Cc1ccc(S(=O)(=O)NCc2csc(C)n2)c(C)c1
Result: inactive

Request: Moving on to the next compound: O=C(Nc1ccccc1C(=O)Nc1ccncc1)c1ccc([N+](=O)[O-])cc1
Result: inactive

Request: Moving on to the next compound: CCc1ccc(OCC(=O)N(Cc2ccccc2)C2CCS(=O)(=O)C2)cc1 (configuration not stated)
Result: inactive

Request: Moving on to the next compound: S=c1[nH]nc(-c2ccc(Cl)cc2)n1CC1CCCO1 (configuration not stated)
Result: active

Request: Moving on to the next compound: N/C(Cc1ccc([N+](=O)[O-])cc1)=N\OC(=O)COc1ccc2ccccc2c1
Result: active

###

assay: enhancers of RGS4 function in calcium signaling – cell-based, HEK293 M3R inducible RGS4, calcium flux, primary screen (AID 463111); details: HEK293 M3R/inducible RGS4, carbachol calcium flux Fluo4, at 10 µM
The whole screen tested about 310,000 compounds, of which about 2,800 (0.9%) were called active.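 Rule for the calls: active = B-score of the integrated calcium signal more than 4 SD below the library mean, with starting fluorescence not abnormally high; inactive = the rest.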 Only a selection was taken, and actives are over-represented in it overall.
Hello, when you answer, please use one of the following outcomes: label 1 = active, label 0 = inactive

{"COMPOUND": "COc1cc(/C=C/C(=O)N2c3ccccc3Sc3ccc(C(F)(F)F)cc32)cc(OC)c1OC", "CATEGORY": "label 0"}
{"COMPOUND": "CN(C)CCCN(C(=O)c1ccc(S(=O)(=O)N2CCCCCC2)cc1)c1nc2ccc(Br)cc2s1", "CATEGORY": "label 0"}
{"COMPOUND": "COc1ccccc1NC(=O)N1CCCC1C(=O)NCc1cccs1 (stereo unspecified)", "CATEGORY": "label 0"}

Request: Tell me the recorded outcome of this test for CCN1CCN(c2sc(S(C)(=O)=O)nc2S(=O)(=O)c2ccc(Cl)cc2)CC1 .
Result: label 0

Request: Moving on to the next compound: CN(C)CCCN(C(=O)c1ccc(S(=O)(=O)N2CCCCCC2)cc1)c1nc2cc3c(cc2s1)OCCO3
Result: label 1

Request: Moving on to the next compound: CCC(C)c1ccc(NC(=S)NCc2ccccn2)cc1 (stereo unspecified)
Result: label 0

Request: Moving on to the next compound: C=CS(=O)c1sc(Cl)c(N2CCOCC2)c1[N+](=O)[O-] (stereo unspecified)
Result: label 0

Request: Moving on to the next compound: COc1ccc(C(C(O)C(=O)c2c[nH]c3ccccc23)N2CCN(c3ccccc3)CC2)cc1 (stereo unspecified)
Result: label 0

Request: Moving on to the next compound: CC1=C(C(=O)OC2CCCCC2)C(c2cccnc2)n2ncnc2N1 (stereo unspecified)
Result: label 0

Request: Moving on to the next compound: COC(=O)c1cccc(C(=O)N2CCC(CCC(=O)NCc3ccc(F)cc3)CC2)c1
Result: label 0

Request: Moving on to the next compound: CC1CCN(C(=O)COC(=O)c2cc(S(=O)(=O)N3CCOCC3)ccc2Cl)CC1
Result: label 0

###

experiment: enhancers of RGS4 function in calcium signaling – cell-based, HEK293 M3R inducible RGS4, calcium flux, primary screen (AID 463111); conditions: HEK293 M3R/inducible RGS4, carbachol calcium flux Fluo4, at 10 µM
Out of some 310,000 compounds screened, about 2,800 (0.9%) were called active.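 The calls were made as follows: active = B-score of the integrated calcium signal more than 4 SD below the library mean, with starting fluorescence not abnormally high; inactive = the rest.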 The entries come from a sample that favours actives as a whole.
Hello, when you answer, please use one of the following outcomes: T (active), F (inactive)

Request: Tell me the recorded outcome of this test for Cc1ccc(N(Cc2ccccc2O)C(=O)c2ccccc2F)cc1 .
Result: F

###

assay: enhancers of RGS4 function in calcium signaling – cell-based, HEK293 M3R inducible RGS4, calcium flux, primary screen (AID 463111); conditions: HEK293 M3R/inducible RGS4, carbachol calcium flux Fluo4, at 10 µM
Among all 310,000 compounds or so, about 2,800 (0.9%) were called active.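 Rule for the calls: active = B-score of the integrated calcium signal more than 4 SD below the library mean, with starting fluorescence not abnormally high; inactive = the rest.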 The list comes from a sample in which actives are over-represented; it also holds close analogues and randomly drawn compounds.
Hello, when you answer, please use one of the following outcomes: active, inactive

Some entries whose results are on file:
{"MOLECULE": "Cn1cnnc1Sc1ccc(CN2CCN(C3CCCC3)C(CCO)C2)o1 (centres undefined)", "CATEGORY": "inactive"}
{"MOLECULE": "CC1(C)Cc2c(sc3nc4n(c(=N)c23)CCCCC4)CO1", "CATEGORY": "inactive"}
{"MOLECULE": "COc1ccc(NS(=O)(=O)c2ccc(N3CCN(CCO)CC3)c([N+](=O)[O-])c2)cc1", "CATEGORY": "inactive"}
{"MOLECULE": "Oc1oc(-c2ccccc2Br)nc1/C=N/c1ccccn1", "CATEGORY": "inactive"}
{"MOLECULE": "COc1ccccc1NC(=O)COC(=O)c1ccccc1SCC(=O)N1CCCC1", "CATEGORY": "inactive"}

Request: Tell me the recorded outcome of this test for CCN1C(=O)[C@H]2[C@@H](c3ccc(C)cc3)N3C(=O)N(c4cccc(Br)c4)C(=O)[C@@]3(CC)[C@H]2C1=O .
Result: inactive

Request: Moving on to the next molecule: COc1cc(/C=C(\C#N)c2nc3c(s2)CC(C)CC3)ccc1O (centres undefined)
Result: inactive

Request: Moving on to the next molecule: N=c1c2c3c(sc2nc2n1CCCCC2)CCCC3
Result: active

Request: Moving on to the next molecule: CN(C)CCOCCOc1ccc(Cl)c2ccccc12
Result: inactive

###

experiment: enhancers of RGS4 function in calcium signaling – cell-based, HEK293 M3R inducible RGS4, calcium flux, primary screen (AID 463111); conditions: HEK293 M3R/inducible RGS4, carbachol calcium flux Fluo4, at 10 µM
The campaign covered roughly 310,000 compounds. About 2,800 (0.9%) were called active.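 Rule for the calls: active = B-score of the integrated calcium signal more than 4 SD below the library mean, with starting fluorescence not abnormally high; inactive = the rest.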 The sample holds actives, similar compounds and a random draw of the others, so the mix is not that of the screen.
Hello, when you answer, please use one of the following outcomes: active, inactive

Some entries whose results are on file:
{"COMPOUND": "O=C1Nc2ccc(Br)cc2/C1=N/N=C/C1=C(N2CCOCC2)C(=C\\c2ccccc2)/CC1", "CATEGORY": "inactive"}
{"COMPOUND": "Cc1ccc(NC(=O)c2sccc2C)cc1[N+](=O)[O-]", "CATEGORY": "inactive"}
{"COMPOUND": "O=C(c1ccccc1F)N1CCN(S(=O)(=O)c2ccc(Br)cc2)CC1", "CATEGORY": "inactive"}
{"COMPOUND": "CN1CCC(OC(=O)COc2ccc(Cl)cc2Cl)CC1", "CATEGORY": "active"}

Request: Tell me the recorded outcome of this test for N/C(=N\OC(=O)COc1ccc([N+](=O)[O-])cc1)c1ccc(Br)cc1 .
Result: inactive

Request: Moving on to the next compound: CC[n+]1c(C)n(-c2ccccc2)c2ccc(NC(C)=O)cc21
Result: inactive

Request: Moving on to the next compound: Cc1oc2c(F)c(F)c(F)c(F)c2c1S(=O)(=O)Nc1cccc(C(F)(F)F)c1
Result: active

Request: Moving on to the next compound: CCOc1ccccc1NC(=O)Cn1ncc2ccc([N+](=O)[O-])cc21
Result: inactive

Request: Moving on to the next compound: C=CCn1c(=O)c(C(=O)NCc2ccc3c(c2)OCO3)c(O)c2ccccc21
Result: inactive

Request: Moving on to the next compound: N/C(Cc1ccc([N+](=O)[O-])cc1)=N\OC(=O)C1CCCCC1
Result: inactive
